Target: T1, 4H3414-bN
T1 chain: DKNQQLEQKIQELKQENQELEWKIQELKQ
Experiment: two-hybrid library CCNG1;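 also: natural log of median RNA to DNA barcode read ratio; higher means stronger binding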
readout.type: interaction score

{"columns": ["binder", "test.result"],
 "data": [
  ["DENQQLKQENQELEQKIQELKWKIQELKQ [4H1710-bN]", -0.297],
  ["DKNQQLEQEIQELEQKNQELKWEIQELEQ [4H3129-bN]", 1.09],
  ["DKNQQLEQEIQELKQKIQELEWENQELKQ [4H3172-bN]", 0.0803],
  ["DENQQLEQKNQELEQKIQELKWEIQELEQ [4H1449-bN]", -0.742],
  ["DENQQLEQENQELKQEIQELEWKIQELKQ [4H1222-bN]", 0.105],
  ["DENQQLKQKIQELEQEIQELKWENQELKQ [4H1804-bN]", -0.563],
  ["DENQQLKQKNQELKQEIQELEWEIQELEQ [4H1985-bN]", -1.17]
]}
